Cited source: the supplement of paper PMC10724198

- Test system: Saccharomyces cerevisiae;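 also: PSI is a weighted mean of sequencing reads over stability bins, variants kept only with over 10 reads, mCherry proximal and sfGFP distal, peptide attached via GGGS linker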
- assayProtocol: protein stability index of tFT-peptide fusion (C-terminal peptide) (PSI (0-1 scale)); higher = more stable (slower turnover)
- protocolConditions: genetic background: das1 deletion; temperature: 37 C
I'd appreciate it if you could supply protein stability index values for the items below.
Answers are plain numbers.

VIVKSRTTLYIS :: 0.613
VPSPWLIRSLMS :: 0.716
VLLLRRPLLVFS :: 0.229
VWSWFVIYFFFC :: 0.497
VLLYRIAPRLLH :: 0.735
VLRFVYDLVSAL :: 0.643

Items follow; give protein stability index for each.
1. RCRLYLNVVVLC
2. SPRGVVIAFLVC
3. NFFLLFFFFLSF
4. MLFALLTIVFLG
5. WSHVPLAPLSCF
6. VVFVGRSIVVLT

Output:
1. 0.413
2. 0.577
3. 0.535
4. 0.388
5. 0.477
6. 0.567
